Species: Rattus norvegicus
Experiment: Open TG-GATES - Regimen: Daily Repeat
Format: toxicity, organism-based, Sprague-Dawley
Set-up: regimen Daily Repeat, gender Male, age 6 weeks
Details: in vivo, po, 0 mg/kg, […], tissue Plasma, route gavage, dose level Control, time 28 day
property.name: GLC (mg/dL)

> print(dat)
                                    molecule  measure.unit  result.number
 1  O=C1CN(/N=C/c2ccc(-c3ccc([N+](=O)[O-])cc3)o2)C(O)=N1         mg/dL          187.8
 2  COc1ccc(Cl)cc1C(=O)NCCc1ccc(S(=O)(=O)NC(=O)NC2CCCCC2)cc1 [GLYBURIDE]         mg/dL            214
 3       Cc1cccc(Nc2cc(Cl)nc(SCC(=O)O)n2)c1C         mg/dL            199
 4  CS(=O)(=O)Nc1ccc([N+](=O)[O-])cc1Oc1ccccc1 [NIMESULIDE]         mg/dL            200
 5         O=C1NC(=O)C(c2ccccc2)(c2ccccc2)N1         mg/dL          189.6
 6                                     C=CCO         mg/dL          222.2
 7   Cn1cnc([N+](=O)[O-])c1Sc1ncnc2nc[nH]c12         mg/dL          202.4
 8                Cn1c(=O)c2c(ncn2C)n(C)c1=O         mg/dL          197.4
 9  O=P1(N(CCCl)CCCl)NCCCO1 (stereo unspecified) [CYCLOPHOSPHAMIDE ANHYDROUS]         mg/dL          181.2
10  COc1ccc(O)c(C(C)(C)C)c1.COc1ccc(O)cc1C(C)(C)C [BUTYLATED HYDROXYANISOLE]         mg/dL            191
11  Cc1cnc(NC(=O)C2=C(O)c3ccccc3S(=O)(=O)N2C)s1         mg/dL          239.5

====

Organism: Rattus norvegicus
Assay: Open TG-GATES - Regimen: Daily Repeat
Type: toxicity, organism-based, Sprague-Dawley
Parameters: regimen Daily Repeat, gender Male, age 6 weeks
Settings: in vivo, po, 0 mg/kg, 72 h, tissue Plasma, route gavage, dose level Control, time 3 day
property.name: DBIL

> print(dat)
                                   compound       result
1  CS(=O)(=O)Nc1ccc([N+](=O)[O-])cc1Oc1ccccc1 [NIMESULIDE]  0.064 mg/dL
2         O=C1NC(=O)C(c2ccccc2)(c2ccccc2)N1      0 mg/dL
3                Cn1c(=O)c2c(ncn2C)n(C)c1=O      0 mg/dL
4  O=P1(N(CCCl)CCCl)NCCCO1 (stereo unspecified) [CYCLOPHOSPHAMIDE ANHYDROUS]  0.002 mg/dL
5                                     C=CCO  0.088 mg/dL
6  Cc1cnc(NC(=O)C2=C(O)c3ccccc3S(=O)(=O)N2C)s1    0.1 mg/dL

====

# Lookup of reported BUN keyed by entry
Species: Rattus norvegicus
Experiment: Open TG-GATES - Regimen: Single
Type: toxicity, organism-based, Sprague-Dawley
Parameters: regimen Single, gender Male, age 6 weeks
Settings: in vivo, po, 0 mg/kg, 6 h, tissue Plasma, route gavage, dose level Control
property.name: BUN (mg/dL)

> print(dat)
                                   compound  property.name  result.number
1  CNCCC(Oc1ccc(C(F)(F)F)cc1)c1ccccc1.Cl (centres undefined) [FLUOXETINE HYDROCHLORIDE]            BUN            9.2
2  COc1ccc(Cl)cc1C(=O)NCCc1ccc(S(=O)(=O)NC(=O)NC2CCCCC2)cc1 [GLYBURIDE]            BUN            8.8
3  CS(=O)(=O)Nc1ccc([N+](=O)[O-])cc1Oc1ccccc1 [NIMESULIDE]            BUN           12.4
4  COc1ccc(O)c(C(C)(C)C)c1.COc1ccc(O)cc1C(C)(C)C [BUTYLATED HYDROXYANISOLE]            BUN            7.2
5         O=C1NC(=O)C(c2ccccc2)(c2ccccc2)N1            BUN            8.6
6       Cc1cccc(Nc2cc(Cl)nc(SCC(=O)O)n2)c1C            BUN           10.2
7                                     C=CCO            BUN             10
8  S=C=Nc1cccc2ccccc12 [1-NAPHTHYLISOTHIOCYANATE]            BUN             10
9   Cn1cnc([N+](=O)[O-])c1Sc1ncnc2nc[nH]c12            BUN           11.6

====

Organism: Rattus norvegicus
Assay: Open TG-GATES - Regimen: Single
Assay type: toxicity, organism-based, Sprague-Dawley
Parameters: regimen Single, gender Male, age 6 weeks
Details: in vivo, po, 0 mg/kg, 24 h, tissue Blood, route gavage, dose level Control
property.name: Lym (%)

> print(dat)
                                    molecule  result.number
 1  O=C1NC(=O)C(c2ccccc2)(c2ccccc2)N1 [PHENYTOIN]           79.8
 2  O=C1CN(/N=C/c2ccc(-c3ccc([N+](=O)[O-])cc3)o2)C(O)=N1 [DANTROLENE]           76.6
 3  CNCCC(Oc1ccc(C(F)(F)F)cc1)c1ccccc1.Cl (stereo unspecified) [FLUOXETINE HYDROCHLORIDE]           76.4
 4  Cn1cnc([N+](=O)[O-])c1Sc1ncnc2nc[nH]c12 [AZATHIOPRINE]           77.4
 5  Cc1cnc(NC(=O)C2=C(O)c3ccccc3S(=O)(=O)N2C)s1 [MELOXICAM]           78.6
 6  COc1ccc(Cl)cc1C(=O)NCCc1ccc(S(=O)(=O)NC(=O)NC2CCCCC2)cc1 [GLYBURIDE]             77
 7  COc1ccc(O)c(C(C)(C)C)c1.COc1ccc(O)cc1C(C)(C)C [BUTYLATED HYDROXYANISOLE]             77
 8  Cc1cccc(Nc2cc(Cl)nc(SCC(=O)O)n2)c1C [PIRINIXIC ACID]           73.8
 9  CS(=O)(=O)Nc1ccc([N+](=O)[O-])cc1Oc1ccccc1 [NIMESULIDE]           71.6
10  S=C=Nc1cccc2ccccc12 [1-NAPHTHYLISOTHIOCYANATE]           81.6
11                     C=CCO [ALLYL ALCOHOL]           78.2

====

# Lookup of reported KIDNEY_R keyed by entry
Species: Rattus norvegicus
Assay: Open TG-GATES - Regimen: Daily Repeat
Format: toxicity, organism-based, Sprague-Dawley
Design: regimen Daily Repeat, gender Male, age 6 weeks
Settings: in vivo, po, 0 mg/kg, […], tissue Kidney, route gavage, dose level Control, time 14 day
property.name: KIDNEY_R (g)

> print(dat)
                                    molecule  result.number
 1       Cc1cccc(Nc2cc(Cl)nc(SCC(=O)O)n2)c1C            1.2
 2                Cn1c(=O)c2c(ncn2C)n(C)c1=O            1.2
 3  O=C1CN(/N=C/c2ccc(-c3ccc([N+](=O)[O-])cc3)o2)C(O)=N1            1.3
 4  O=P1(N(CCCl)CCCl)NCCCO1 (stereo unspecified) [CYCLOPHOSPHAMIDE ANHYDROUS]            1.2
 5  CS(=O)(=O)Nc1ccc([N+](=O)[O-])cc1Oc1ccccc1 [NIMESULIDE]            1.3
 6                                     C=CCO            1.2
 7         O=C1NC(=O)C(c2ccccc2)(c2ccccc2)N1            1.2
 8  COc1ccc(Cl)cc1C(=O)NCCc1ccc(S(=O)(=O)NC(=O)NC2CCCCC2)cc1 [GLYBURIDE]            1.3
 9  COc1ccc(O)c(C(C)(C)C)c1.COc1ccc(O)cc1C(C)(C)C [BUTYLATED HYDROXYANISOLE]            1.2
10   Cn1cnc([N+](=O)[O-])c1Sc1ncnc2nc[nH]c12            1.1
11  Cc1cnc(NC(=O)C2=C(O)c3ccccc3S(=O)(=O)N2C)s1            1.2
